system: SF-268 CNS; assay: NCI tumour cell line growth inhibition, 48 h
result.type: TGI (µM)

In [3]: df
Out[3]:
                                   compound  sign  quantitative_result
0     CCCCCCn1c(SC)nc(COC(=O)NC)c1COC(=O)NC     =                 30.6
1  CC1(C)N=C(N)N=C(N)N1c1ccc(OCCCNC(=O)Nc2cccc(S(=O)(=O)F)c2)c(Cl)c1     >                  100
2  CC(C)[C@@](O)(c1ccc2cc(OC(F)F)c(OC(F)F)cc2c1)c1cn[nH]n1     =                 49.4
3  CC(=O)Nc1ccc(C(=O)NN2C(=O)CSC2c2ccc(O)cc2)cc1 (stereo not given)     >                  100
4  CNC1c2ccccc2C(=O)c2cc3c(cc21)OCCOCCOCCOCCO3 (stereo not given)     >                  100

* * *

system: DU-145 prostate; test: NCI tumour cell line growth inhibition, 48 h
Where a SMILES comes first, the peptide text is derived from it. [ ]: non-standard residue; d: D form. The star is where a group is joined. ξ: configuration not given here. ξF = NC(Cc1ccccc1)C(=O)O; Cbz = O=C(OCc1ccccc1)*; Aib = CC(C)(N)C(=O)O

compound	TGI
CC(=O)OCC1OC(c2c(OC(C)=O)cc(C)c3c(=O)cc(/C(C(C)=O)=C(\C)O)oc23)C(OC(C)=O)C(OC(C)=O)C1OC(C)=O (stereo not drawn)	> 100 µM
CC1(C)N=C(N)N=C(N)N1c1ccc(OCCCNC(=O)Nc2cccc(S(=O)(=O)F)c2)c(Cl)c1	> 100 µM
CC(O)CN1c2ccccc2Sc2ccccc21 (stereo not drawn)	> 100 µM
CCOC(=O)Cc1nnc2n(-c3ccccc3)c(=O)c3ccccc3n12	> 100 µM
CCOC(=O)CNC(=O)C(Cc1ccccc1)NC(=O)C(C)(C)NC(=O)OCc1ccccc1 (stereo not drawn) (Cbz-[Aib]-[ξF]-Gly-OEt)	> 100 µM
O=C(COc1cccc(/C=C2\CSc3ccc(Cl)cc3C2=O)c1)c1ccc(Cl)cc1	27.9 µM
CC(=O)c1cc2c(s1)C(=O)c1sccc1C2=O	0.0995 µM
COc1ccc(CCN(CC(=O)N(CC(N)=O)C2CCC[C@@H]2OCc2ccccc2)C(=O)CN(C(=O)CN(CCc2ccc(Cl)cc2)C(=O)CN(C(=O)CN(C)Cc2ccccc2F)[C@H](C)C2CCCCC2)[C@H](C)C2CCCCC2)cc1OC (stereo partly drawn)	> 50 µM

* * *

Quick list: TGI per entry.
system: BT-549 breast; experiment: NCI tumour cell line growth inhibition, 48 h
result.type: TGI

molecule	result.type	result
CCOC(=O)C1(C/C=C/CCl)CCCC1=O (centres undefined)	TGI	40.8 µM
Cn1cc(-c2nc(-c3c[nH]c4ncccc34)cs2)c2ccccc21	TGI	> 100 µM
CC1=C(C)C(=O)O[C@@H]([C@](C)(O)[C@]2(O)CC[C@@]3(O)[C@@H]4C[C@H](O)[C@]5(O)[C@@H](O)C=CC(=O)[C@]5(C)[C@H]4CC[C@]23C)C1	TGI	> 100 µM
COc1ccc(CCN(CC(=O)N(CC(N)=O)C2CCC[C@@H]2OCc2ccccc2)C(=O)CN(C(=O)CN(CCc2ccc(Cl)cc2)C(=O)CN(C(=O)CN(C)Cc2ccccc2F)[C@H](C)C2CCCCC2)[C@H](C)C2CCCCC2)cc1OC (some centres undefined)	TGI	15.6 µM
CCC1(CC)C(=O)N(C(=O)c2ccccc2)N(C(=O)c2ccc(Cl)cc2)C1=O	TGI	> 75 µM
CCCCN1C(=O)c2c(Br)sc(Br)c2C1=O	TGI	> 100 µM
COc1ccc2nc3c([N+](=O)[O-])ccc4c3c(c2c1)NCCN4CCN(C)C	TGI	3.39 µM
N#CC(C#N)=C1CCOc2ccc(F)cc21	TGI	> 100 µM
COc1ccc(NC2=C(I)C(=O)c3ncccc3C2=O)cc1	TGI	2.59 µM
C#CC(=O)Nc1cccc2c1cc(C)n2-c1nc2c(c(NCc3ccccc3)n1)CCCC2	TGI	0.324 µM
CC(C)(C)C1CCC2c3c([nH]c4ccccc34)C3C(=O)N(c4ccccc4[N+](=O)[O-])C(=O)C3C2C1 (centres undefined)	TGI	68.5 µM
CC1(C)C2CCC1(C)C(OC(=O)/C=C/C(=O)OC1CC3CCC1(C)C3(C)C)C2 (centres undefined)	TGI	> 100 µM
C=C1C(=O)O[C@H]2[C@H](OC(C)=O)[C@@H](C)CCCC3(C)OC3CCC3(CO3)[C@H](O)C[C@@H]12 (some centres undefined)	TGI	32 µM
Nc1[nH]c(=S)nc2nc3c(c(-c4ccccc4)c12)CCCC3	TGI	> 100 µM
O=C1C2CCCCC2C(=O)N1n1c(-c2ccccc2)n[nH]c1=O (centres undefined)	TGI	> 100 µM
N/N=C(\c1nc2ccc([N+](=O)[O-])cc2[nH]c1=O)C(O)c1ccc(Cl)c(Cl)c1 (centres undefined)	TGI	> 100 µM
O=c1[nH]c(N/N=C\C(=N/Nc2nc3ccccc3c(=O)[nH]2)C(O)C(O)C(O)CO)nc2ccccc12 (centres undefined)	TGI	> 100 µM
Cc1c2c(nc3ccccc13)C(=O)c1cccnc1C2=O	TGI	> 100 µM
CC(=O)Nc1ccc(C(=O)NN2C(=O)CSC2c2ccc(O)cc2)cc1 (centres undefined)	TGI	> 100 µM
